# Tested on: EKVX
# EXPERIMENT: NCI tumour cell line growth inhibition, 48 h
Calls of active or inactive are those of the source. Cut-off read from the data, not from the text of the source: active = GI50 up to about 1.1 µM and inactive = higher.
MEASURED ATTRIBUTE: GI50

Look over these answered cases.
[[record]]
compound = "O=C1CSC(c2c(O)ccc3ccccc23)N1n1c(S)nnc(/C=C/c2c(O)ccc3ccccc23)c1=O (stereo unspecified)"
value_measured = "6.15 µM (inactive)"

[[record]]
compound = "Nc1c(O)c(C(=O)O)cc2ccccc12"
value_measured = "53.8 µM (inactive)"

[[record]]
compound = "NCCS(=O)(=O)O"
value_measured = "> 100 µM (inactive)"

[[record]]
compound = "C=CCCCCCCCCC(=O)NS(=O)(=O)c1ccccc1"
value_measured = "> 100 µM (inactive)"

[[record]]
compound = "c1ccc(-c2cn3c(nc4ccccc43)c(-c3ccccc3)n2)cc1"
value_measured = "> 100 µM (inactive)"


Now let's try a different one.
Measured GI50, O=C1CCCCC[C@]12SC[C@H]1CON=C12 : 31 µM (inactive)
